Test system: Vero E6 infected with SARS-CoV-2
PROCEDURE DETAILS: inhibition of SARS-CoV-2 cytopathic effect; higher = more antiviral protection, active = above 15
SETUP CONDITIONS: 1 nM; 48 h
Listed next: entries and their corresponding inhibition of SARS-CoV-2 cytopathic effect.
MEASUREMENT NAME: inhibition of SARS-CoV-2 cytopathic effect (%)

# COMPOUND, DATA VALUE
rows = [
    ("O/N=C/c1cc[n+](COC[n+]2ccc(/C=N/O)cc2)cc1", 1.54),
    ("CCCN(C/C=C/I)[C@H]1CCc2ccc(O)cc2C1 [7-hydroxy-PIPAT]", -0.76),
    ("CC1(C)O[C@@H]2C[C@H]3[C@@H]4CCC5=CC(=O)C=C[C@]5(C)[C@H]4[C@@H](O)C[C@]3(C)[C@]2(C(=O)CO)O1 [desonide]", 1.41),
    ("Cc1ccccc1C(=O)Nc1ccc(C(=O)N2CCCC(N(C)C)c3ccccc32)cc1 (configuration not stated)", 0.68),
    ("O=C(CCCCCCC(=O)Nc1ccccc1)NO", -0.07),
    ("Cc1ccc2c(N3CCN(CCc4cccc(N5CCNC5=O)c4)CC3)cccc2n1", -2.94),
    ("CCCCCCNC(=O)n1cc(F)c(=O)[nH]c1=O", 2.01),
    ("CCCC1(CCC)CCC2(CCN(CCCN(CC)CC)C2)CC1", -0.73),
    ("CO[C@H]1/C=C/O[C@@]2(C)Oc3c(C)c(O)c4c(O)c(c(/C=N/N5CCN(C)CC5)c(O)c4c3C2=O)NC(=O)/C(C)=C\\C=C\\[C@H](C)[C@H](O)[C@@H](C)[C@@H](O)[C@@H](C)[C@H](OC(C)=O)[C@@H]1C", -3.64),
    ("COc1cc2c(cc1C(F)(F)F)N(C(=O)Nc1cc(F)cc(-c3cccnc3)c1)CC2", 1.91),
    ("COc1nc(C)cnc1NS(=O)(=O)c1cccnc1-c1ccc(-c2nnco2)cc1", -2.02),
    ("CC/C(=C(/c1ccc(/C=C/C(=O)O)cc1)c1ccc2[nH]ncc2c1)c1ccc(F)cc1Cl", 4.17),
]

====

Tested on: Vero E6 infected with SARS-CoV-2
PROCEDURE DETAILS: inhibition of SARS-CoV-2 cytopathic effect; higher = more antiviral protection, active = above 15
SETUP CONDITIONS: 1 nM; 48 h
Listed next: entries and their corresponding inhibition of SARS-CoV-2 cytopathic effect.
MEASUREMENT NAME: inhibition of SARS-CoV-2 cytopathic effect (%)

# COMPOUND, UNIT SYMBOL, DATA VALUE
records = [
    ("NCC1CC(=O)N(Cc2ccccc2)C1 (stereo not given)", "%", 2.53),
    ("Cc1c(O)cccc1C(=O)N[C@@H](CSc1ccccc1)[C@H](O)CN1C[C@H]2CCCC[C@H]2C[C@H]1C(=O)NC(C)(C)C", "%", -4.7),
    ("O=C(O)C(=O)CBr [3-bromopyruvate]", "%", -3.69),
    ("Nc1ncnc2c1nc(Br)n2[C@@H]1O[C@@H]2COP(=O)(O)O[C@H]2[C@H]1O", "%", 2.13),
    ("CC[C@@H](CO)NC(=O)[C@@H]1C=C2c3cccc4c3c(cn4C)C[C@H]2N(C)C1 [methysergide]", "%", -0.52),
]

====

Tested on: Vero E6 infected with SARS-CoV-2
PROCEDURE DETAILS: inhibition of SARS-CoV-2 cytopathic effect; higher = more antiviral protection, active = above 15
SETUP CONDITIONS: 8.33 nM; 48 h
Listed next: entries and their corresponding inhibition of SARS-CoV-2 cytopathic effect.
MEASUREMENT NAME: inhibition of SARS-CoV-2 cytopathic effect (%)

# COMPOUND, DATA VALUE
rows = [
    ("CC(=O)O[C@H]1Cc2ccccc2N(C(N)=O)c2ccccc21 [eslicarbazepine-acetate]", -0.54),
    ("O=C(O)C[C@H]1CC[C@H](c2ccc(-c3ccc(Nc4ccc(C(F)(F)F)nc4)cn3)cc2)CC1", 0.84),
    ("COC(F)(F)C(Cl)Cl [methoxyflurane]", 5.27),
    ("CCN(CC)CCNC(=O)c1cc(Cl)c(N)cc1OC [metoclopramide]", 0.96),
    ("O=S(=O)(/N=C/c1c(O)ccc2ccccc12)c1cccs1", 2.5),
    ("Cc1cc2c(N3CCCC3)nc(N3CCCC3)nc2n1C", 5.02),
    ("Cc1cc(C)c(NC(=O)C2CC3CCC2C3)c(C)c1 (centres undefined)", -1.21),
    ("O=C1CN(/N=C/c2ccc(-c3ccc([N+](=O)[O-])cc3)o2)C(=O)N1 [dantrolene]", 0.6),
    ("O=[N+]([O-])c1ncc[nH]1 [azomycin-(2-nitroimidazole)]", 1.77),
]
